# MEASUREMENT_PROTOCOL: Determining the solubility (saturated solution in McIlvaine buffer pH 7.4, UV spectroscopy)
# Assay type: physicochemical
# TEST_CONDITIONS: pH 7.4, aqueous buffer, thermodynamic from solid, shaken 2 hours, 0.75 mg solid in 0.75 ml
PARAMETER_MEASURED: solubility at 2 h (µg/mL)

COc1c(CO)cc(C(C)(C)C)cc1NC(=O)c1cc2cccc(CN3CCN(C(=O)[C@@H]4CCCN4C)CC3)c2n1C [Example 15]
230

a = COc1c(NC(=O)c2cc3cccc(CN4CCN(C(=O)[C@H]5C[C@@H](O)CN5C)CC4)c3n2C)cc(C(C)(C)C)cc1NS(C)(=O)=O [1(10)]
b = COc1c(CN(C(C)C)C(C)C)cc(C(C)(C)C)cc1NC(=O)c1cc2cccc(CN3CCN(C(=O)[C@@H]4CCCN4C)CC3)c2n1C [9(1)]
c = COc1c(NC(=O)c2cc3cccc(CN4CCN(C(=O)[C@H]5CCCN5C)CC4)c3n2C)cc(C(C)(C)C)cc1NS(C)(=O)=O [1(3)]
d = COc1c(NC(=O)c2cc3cccc(CN4CCN(C(=O)C5CNC5)CC4)c3n2C)cc(C(C)(C)C)cc1NS(C)(=O)=O [Example 3]
Please list the entries, largest solubility at 2 h first. Output spec: a listing of the labels in the requested order. b, c, d, a
(b: 570 µg/mL, c: 160 µg/mL, d: 85 µg/mL, a: 43 µg/mL)

1 = COc1c(CS(C)(=O)=O)cc(C(C)(C)C)cc1NC(=O)c1cc2cccc(CN3CCN(C(=O)[C@@H]4CCCN4C)CC3)c2n1C [11(5)]
2 = COc1c(CN2CCC(N(C)C)CC2)cc(C(C)(C)C)cc1NC(=O)c1cc2cccc(CN3CCN(C(=O)[C@@H]4CCCN4C)CC3)c2n1C [9(5)]
3 = COc1c(NC(=O)c2cc3cccc(CN4CCCN(C(=O)[C@@H]5CCN(C)C5)CC4)c3n2C)cc(C(C)(C)C)cc1NS(C)(=O)=O [5(2)]
Please list the entries, largest solubility at 2 h first. Output spec: a listing of the labels in the requested order. 2, 3, 1

====

# MEASUREMENT_PROTOCOL: Determining the solubility (saturated solution in McIlvaine buffer pH 7.4, UV spectroscopy)
# Assay type: physicochemical
# TEST_CONDITIONS: pH 7.4, aqueous buffer, thermodynamic from solid, shaken 2 hours, 0.75 mg solid in 0.75 ml
PARAMETER_MEASURED: solubility at 2 h (µg/mL)

COc1c(NC(=O)c2cc3cccc(CN4CCN(C(=O)[C@@H]5CCCN5)CC4)c3n2C)cc(C(C)(C)C)cc1NS(C)(=O)=O [1(4)]
100
COc1c(NC(=O)c2cc3cccc(CN4CCN(C(=O)[C@@H]5CCCN5C)CC4)c3n2C)cc(C(F)(F)F)cc1NS(C)(=O)=O [14(1)]
97
COc1c(NC(=O)c2cc3cccc(CC4CCCN(C(=O)C5CCN(C)CC5)CC4)c3n2C)cc(C(C)(C)C)cc1NS(C)(=O)=O (stereo not drawn) [1(19)]
98

====

# MEASUREMENT_PROTOCOL: Determining the solubility (saturated solution in McIlvaine buffer pH 7.4, UV spectroscopy)
# Assay type: physicochemical
# TEST_CONDITIONS: pH 7.4, aqueous buffer, thermodynamic from solid, shaken 2 hours, 0.75 mg solid in 0.75 ml
PARAMETER_MEASURED: solubility at 2 h (µg/mL)

CCN(CC)C1CCN(Cc2cc(C(C)(C)C)cc(NC(=O)c3cc4cccc(CN5CCN(C(=O)[C@@H]6CCCN6C)CC5)c4n3C)c2OC)CC1
470

a = CN1CCC[C@H]1C(=O)N1CCN(Cc2cccc3cc(C(=O)Nc4cccc(N5CCOCC5)c4)n(C)c23)CC1
b = COc1c(NC(=O)c2cc3cccc(CN4CCN(C(=O)[C@@H]5C[C@H](O)CN5C)CC4)c3n2C)cc(C(C)(C)C)cc1NS(C)(=O)=O
Among a and b , which shows a numerically higher solubility at 2 h result? Reply with the label of the item you choose. b
(b: 140 µg/mL, a: 48 µg/mL)

A = COc1c(NC(=O)c2cc3cccc(CN4CCN(C(=O)[C@@H]5CCCN5C)CC4)c3n2C)cc(C(C)(C)C)cc1NC(=O)C1CC1
B = COc1c(NC(=O)c2cc3cccc(CN4CCCN(C(=O)[C@H]5CCN(C)C5)CC4)c3n2C)cc(C(C)(C)C)cc1NS(C)(=O)=O
Could you determine which record has the numerically smaller solubility at 2 h? Candidates: A and B Reply with the label of the item you choose. A
(A: 59 µg/mL, B: 170 µg/mL)

1 = COc1c(NC(=O)c2cc3cccc(CN4CCN(C(=O)C5CN(C)C5)CC4)c3n2C)cc(C(C)(C)C)cc1NS(C)(=O)=O
2 = COc1c(NC(=O)c2cc3cccc(CN4CCCN(C(=O)C5CCN(C)CC5)CC4)c3n2C)cc(C(C)(C)C)cc1NS(C)(=O)=O
Among 1 and 2 , which shows a numerically higher solubility at 2 h result? Reply with the label of the item you choose. 2
(2: 120 µg/mL, 1: 59 µg/mL)

a = COc1c(NC(=O)c2cc3cccc(CN4CCC(C(=O)N5CC[C@H](N(C)C)C5)CC4)c3n2C)cc(C(C)(C)C)cc1NS(C)(=O)=O
b = CCOc1c(NC(=O)c2cc3cccc(CN4CCN(C(=O)[C@@H]5CCCN5C)CC4)c3n2C)cc(C(C)(C)C)cc1NS(C)(=O)=O
Among a and b , which shows a numerically higher solubility at 2 h result? Reply with the label of the item you choose. a
